The measured values listed here are drawn from the supplement of paper PMC12667976.

B1: library; numbered along this chain (parent)
chain: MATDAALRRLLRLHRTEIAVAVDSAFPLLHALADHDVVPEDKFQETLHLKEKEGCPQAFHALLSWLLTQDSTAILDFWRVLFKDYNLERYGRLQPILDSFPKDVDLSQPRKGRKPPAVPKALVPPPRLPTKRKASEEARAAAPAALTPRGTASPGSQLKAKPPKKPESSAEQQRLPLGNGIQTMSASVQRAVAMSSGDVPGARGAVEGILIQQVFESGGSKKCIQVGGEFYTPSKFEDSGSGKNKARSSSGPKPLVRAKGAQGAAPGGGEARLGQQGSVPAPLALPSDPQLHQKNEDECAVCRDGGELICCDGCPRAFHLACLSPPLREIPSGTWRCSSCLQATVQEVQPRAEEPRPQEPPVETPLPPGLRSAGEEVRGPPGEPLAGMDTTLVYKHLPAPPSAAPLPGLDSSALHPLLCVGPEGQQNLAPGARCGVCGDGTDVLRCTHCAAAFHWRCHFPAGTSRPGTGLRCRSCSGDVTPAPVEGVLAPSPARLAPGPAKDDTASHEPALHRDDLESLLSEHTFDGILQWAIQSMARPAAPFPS

Variants of: B1
ASSAY DETAILS: AIRE transcriptional activation functional score (insulin promoter-GFP; nonsense median 0, synonymous median 1) (normalised score); higher = higher AIRE activity (more reporter activation)
STUDY CONDITIONS: with insulin promoter-GFP reporter in HEK293
Would you mind telling me the reported AIRE transcriptional activation functional score of each entry?
Answer with a number only.

Record `A264S` , field AIRE transcriptional activation functional score: 1.18

Record `A121P` , field AIRE transcriptional activation functional score: 0.967

Record `R132K` , field AIRE transcriptional activation functional score: 0.0662

Record `Q172A` , field AIRE transcriptional activation functional score: 0.74

Record `C337S` , field AIRE transcriptional activation functional score: 1.33

Record `V104Y` , field AIRE transcriptional activation functional score: 0.986

Record `A317L` , field AIRE transcriptional activation functional score: 1.01

Record `A264D` , field AIRE transcriptional activation functional score: -0.0126

Record `F453H` , field AIRE transcriptional activation functional score: 0.147

Record `L75K` , field AIRE transcriptional activation functional score: 0.732

Record `E51M` , field AIRE transcriptional activation functional score: -1.54

Record `V479G` , field AIRE transcriptional activation functional score: 0.838

Record `Q182Y` , field AIRE transcriptional activation functional score: 0.181

Record `V123L` , field AIRE transcriptional activation functional score: 1.28

Record `R149D` , field AIRE transcriptional activation functional score: 1.12

Record `A505S` , field AIRE transcriptional activation functional score: 0.985

Record `P101A` , field AIRE transcriptional activation functional score: 0.415

Record `E229R` , field AIRE transcriptional activation functional score: 0.148

Record `E354R` , field AIRE transcriptional activation functional score: 1.14

Record `A496S` , field AIRE transcriptional activation functional score: 1.02

Record `S474R` , field AIRE transcriptional activation functional score: 0.817

Record `K133E` , field AIRE transcriptional activation functional score: 0.0731
